# PROTOCOL NOTES: molar heat capacity at constant pressure
# CONDITION SUMMARY: 241.15 K; 101.33 kPa; Crystal; Small sample (50 mg) DSC
MEASURE: molar heat capacity at constant pressure (J/K/mol)
// units = J/K/mol; emit number, no label

# COMPOUND, molar heat capacity at constant pressure / J/K/mol
records = [
    ("OC[C@@H](O)[C@@H](O)[C@H](O)[C@H](O)CO [D-mannitol]", 188.04),
    ("OC[C@H](O)C(O)[C@@H](O)CO [L-(-)-arabitol]", 166.73),
    ("OC[C@@H](O)[C@H](O)[C@@H](O)CO [xylitol]", 168.92),
    ("O[C@H]1[C@H](O)[C@@H](O)[C@H](O)[C@@H](O)[C@H]1O [cis-1,2,3,5-trans-4,6-cyclohexanehexol]", 174.61),
    ("OC[C@@H](O)C(O)[C@H](O)CO [D-arabitol]", 162.22),
]

Next compound, molar heat capacity at constant pressure to be filled in.
Prompt: Give the reported value of molar heat capacity at constant pressure for this record: OC[C@@H](O)[C@@H](O)CO [meso-1,2,3,4-butanetetrol]
Response: 134.58

----------
Entries and their measured molar heat capacity at constant pressure follow.
# PROTOCOL NOTES: molar heat capacity at constant pressure
# CONDITION SUMMARY: 222.15 K; 101.33 kPa; Crystal; Small sample (50 mg) DSC
// units = J/K/mol; emit number, no label

Below are worked cases with known answers.
# MOLECULE, molar heat capacity at constant pressure (J/K/mol)
records = [
    ("O[C@H]1[C@H](O)[C@@H](O)[C@H](O)[C@@H](O)[C@H]1O [cis-1,2,3,5-trans-4,6-cyclohexanehexol]", 160.36),
    ("OC[C@@H](O)[C@@H](O)[C@H](O)[C@H](O)CO [D-mannitol]", 174.15),
    ("OC[C@@H](O)C(O)[C@H](O)CO [D-arabitol]", 149.98),
    ("OC[C@@H](O)[C@H](O)[C@@H](O)CO [xylitol]", 156.3),
    ("OC[C@@H](O)[C@@H](O)CO [meso-1,2,3,4-butanetetrol]", 124.76),
]

Next molecule, molar heat capacity at constant pressure to be filled in.
Prompt: Give the reported value of molar heat capacity at constant pressure for this record: OC[C@H](O)C(O)[C@@H](O)CO [L-(-)-arabitol]
Response: 154.72

----------
# PROTOCOL NOTES: molar heat capacity at constant pressure
# CONDITION SUMMARY: 345 K; 101.33 kPa; Crystal; Small sample (50 mg) DSC
Numbers after ± are expanded uncertainties.
Entries and their measured molar heat capacity at constant pressure follow.

# COMPOUND, RESULT
records = [
    ("OC[C@@H](O)[C@H](O)[C@@H](O)CO [xylitol]", "250.14 ± 15 J/K/mol"),
    ("OC[C@@H](O)[C@@H](O)CO [meso-1,2,3,4-butanetetrol]", "192.66 ± 23 J/K/mol"),
    ("OC[C@@H](O)[C@@H](O)[C@H](O)[C@H](O)CO [D-mannitol]", "271.57 ± 44 J/K/mol"),
    ("OC[C@H](O)C(O)[C@@H](O)CO [L-(-)-arabitol]", "261.85 ± 52 J/K/mol"),
    ("OC[C@@H](O)C(O)[C@H](O)CO [D-arabitol]", "247.41 ± 20 J/K/mol"),
]

Next compound, molar heat capacity at constant pressure to be filled in.
Prompt: Give the reported value of molar heat capacity at constant pressure for this record: O[C@H]1[C@H](O)[C@@H](O)[C@H](O)[C@@H](O)[C@H]1O [cis-1,2,3,5-trans-4,6-cyclohexanehexol]
Response: 258.97 ± 36 J/K/mol

----------
# CONDITION SUMMARY: 75 K; 101.33 kPa; Crystal; relaxation calorimetry
Numbers after ± are expanded uncertainties.
MEASURE: molar entropy

Below are worked cases with known answers.
# MOLECULE, molar entropy
rows = [
    ("OC[C@@H](O)[C@@H](O)CO", "33.79 ± 3.1 J/K/mol"),
    ("OC[C@@H](O)[C@H](O)[C@@H](O)CO", "36.44 ± 3.3 J/K/mol"),
    ("OC[C@@H](O)C(O)[C@H](O)CO", "38.9 ± 3.6 J/K/mol"),
    ("OC[C@H](O)C(O)[C@@H](O)CO [L-(-)-arabitol]", "39.27 ± 3.6 J/K/mol"),
    ("OC[C@@H](O)[C@@H](O)[C@H](O)[C@H](O)CO", "44.34 ± 4.1 J/K/mol"),
]

Prompt: Give the reported value of molar entropy for this record: O[C@H]1[C@H](O)[C@@H](O)[C@H](O)[C@@H](O)[C@H]1O [cis-1,2,3,5-trans-4,6-cyclohexanehexol]
Response: 36.38 ± 3.3 J/K/mol

----------
# CONDITION SUMMARY: 60 K; 101.33 kPa; Crystal; relaxation calorimetry
Entries and their measured molar entropy follow.
// units = J/K/mol; emit number, no label

Below are worked cases with known answers.
# MOLECULE, NUMERIC VALUE
data = [
    ("OC[C@@H](O)[C@@H](O)[C@H](O)[C@H](O)CO [D-mannitol]", 31.23),
    ("OC[C@H](O)C(O)[C@@H](O)CO [L-(-)-arabitol]", 27.65),
    ("OC[C@@H](O)[C@H](O)[C@@H](O)CO [xylitol]", 25.4),
    ("OC[C@@H](O)C(O)[C@H](O)CO [D-arabitol]", 27.36),
    ("O[C@H]1[C@H](O)[C@@H](O)[C@H](O)[C@@H](O)[C@H]1O [cis-1,2,3,5-trans-4,6-cyclohexanehexol]", 26.38),
]

Next molecule, molar entropy to be filled in.
Prompt: Give the reported value of molar entropy for this record: OC[C@@H](O)[C@@H](O)CO [meso-1,2,3,4-butanetetrol]
Response: 24.19

----------
# PROTOCOL NOTES: molar heat capacity at constant pressure
# CONDITION SUMMARY: 326.15 K; 101.33 kPa; Crystal; Small sample (50 mg) DSC
Class yes (1): molar heat capacity at constant pressure at least 200 J/K/mol. Class no (0): molar heat capacity at constant pressure below 200 J/K/mol.

Here's what some known entries look like.
# COMPOUND, CATEGORY LABEL
data = [
    ("OC[C@@H](O)C(O)[C@H](O)CO", "yes (1)"),
    ("OC[C@@H](O)[C@@H](O)CO", "no (0)"),
    ("OC[C@H](O)C(O)[C@@H](O)CO [L-(-)-arabitol]", "yes (1)"),
]

Prompt: For this compound, is measured molar heat capacity at constant pressure 200 J/K/mol or higher? O[C@H]1[C@H](O)[C@@H](O)[C@H](O)[C@@H](O)[C@H]1O [cis-1,2,3,5-trans-4,6-cyclohexanehexol]
Response: yes (1)

Prompt: For this compound, is measured molar heat capacity at constant pressure 200 J/K/mol or higher? `OC[C@@H](O)[C@H](O)[C@@H](O)CO`
Response: yes (1)

Prompt: For this compound, is measured molar heat capacity at constant pressure 200 J/K/mol or higher? `OC[C@@H](O)[C@@H](O)[C@H](O)[C@H](O)CO`
Response: yes (1)

----------
# PROTOCOL NOTES: molar heat capacity at constant pressure
# CONDITION SUMMARY: 216.15 K; 101.33 kPa; Crystal; Small sample (50 mg) DSC
MEASURE: molar heat capacity at constant pressure (J/K/mol)
// units = J/K/mol; emit number, no label

Below are worked cases with known answers.
# MOLECULE, ENDPOINT UNIT, molar heat capacity at constant pressure
data = [
    ("O[C@H]1[C@H](O)[C@@H](O)[C@H](O)[C@@H](O)[C@H]1O [cis-1,2,3,5-trans-4,6-cyclohexanehexol]", "J/K/mol", 155.5),
    ("OC[C@@H](O)[C@H](O)[C@@H](O)CO", "J/K/mol", 152.02),
    ("OC[C@H](O)C(O)[C@@H](O)CO [L-(-)-arabitol]", "J/K/mol", 150.38),
    ("OC[C@@H](O)[C@@H](O)CO", "J/K/mol", 121.61),
    ("OC[C@@H](O)[C@@H](O)[C@H](O)[C@H](O)CO", "J/K/mol", 169.55),
]

Prompt: Give the reported value of molar heat capacity at constant pressure for this record: `OC[C@@H](O)C(O)[C@H](O)CO`
Response: 145.48

----------
# PROTOCOL NOTES: molar heat capacity at constant pressure
# CONDITION SUMMARY: 198.15 K; 101.33 kPa; Crystal; Small sample (50 mg) DSC
MEASURE: molar heat capacity at constant pressure (J/K/mol)
// units = J/K/mol; emit number, no label

Below are worked cases with known answers.
# COMPOUND, MEASURE, NUMERIC VALUE
rows = [
    ("OC[C@H](O)C(O)[C@@H](O)CO [L-(-)-arabitol]", "molar heat capacity at constant pressure", 138.16),
    ("OC[C@@H](O)[C@@H](O)CO [meso-1,2,3,4-butanetetrol]", "molar heat capacity at constant pressure", 111.77),
    ("O[C@H]1[C@H](O)[C@@H](O)[C@H](O)[C@@H](O)[C@H]1O [cis-1,2,3,5-trans-4,6-cyclohexanehexol]", "molar heat capacity at constant pressure", 141.25),
    ("OC[C@@H](O)[C@H](O)[C@@H](O)CO [xylitol]", "molar heat capacity at constant pressure", 138.87),
    ("OC[C@@H](O)C(O)[C@H](O)CO [D-arabitol]", "molar heat capacity at constant pressure", 132.82),
]

Prompt: Give the reported value of molar heat capacity at constant pressure for this record: OC[C@@H](O)[C@@H](O)[C@H](O)[C@H](O)CO [D-mannitol]
Response: 154.54
